biological target: human CGT (ceramide galactosyltransferase), CHO/CGT lysate (Homo sapiens); construct: Full-length human CGT cDNA was cloned into the BamH1/Xho1 site of pcDNA3.1 (+); expressed in transfected cells; host or cells: Chinese hamster ovary (CHO) cells; lysate prepared with M-PER; test: CGT enzyme assay, RapidFire/MS/MS readout (Table 1 ranges with one asterisk *); format: biochemical; details: RapidFire method (range with one asterisk *)
Counter-ions that a name gives are not always drawn.
MEASUREMENT TYPE: IC50

- COMPOUND: "NC1CC2CCC(C1)N2C(=O)[C@H](NS(=O)(=O)c1ccc(OCC2CCCCC2)cc1)C(F)(F)c1ccc(-c2ccc(Cl)s2)cc1 (stereo partly shown) [Compound 104-2]"
  MEASUREMENT TYPE: "IC50"
  TEST RESULT: "10 to 30 µM"
- COMPOUND: "NC1CC2CCC(C1)N2C(=O)[C@H](NS(=O)(=O)c1ccc2cc(OC3CCCC3)ccc2c1)C(F)(F)c1ccc2cc(Br)ccc2c1 (stereo partly shown) [Compound 38-2, trifluoroacetate]"
  MEASUREMENT TYPE: "IC50"
  TEST RESULT: "1 to 10 µM"
- COMPOUND: "NC1CC2CCC(C1)N2C(=O)[C@@H](NS(=O)(=O)c1ccc2cc(OC3CCCCC3)ccc2c1)C(F)(F)c1ccc(Br)cc1 (stereo partly shown) [Compound 33-1, trifluoroacetate]"
  MEASUREMENT TYPE: "IC50"
  TEST RESULT: "< 1 µM"

Return reported IC50; argument: COc1cc(C(F)(F)[C@H](NS(=O)(=O)c2ccc3cc(OC4CCCC4)ccc3c2)C(=O)N2CCC(N)CC2)ccc1Cl [Compound 123-1]
< 1 µM

Return reported IC50; argument: NC1CC2CCC(C1)N2C(=O)[C@@H](NS(=O)(=O)c1ccc(OCC2CCCCC2)cc1)C(F)(F)c1cccc(-c2ccccc2)c1 (stereo partly shown) [Compound 70-1, trifluoroacetate]
1 to 10 µM

Return reported IC50; argument: NC1CCN(C(=O)[C@H](NS(=O)(=O)c2ccc3cc(OC4CCCC4)ccc3c2)C(F)(F)c2ccc(-c3ccccc3)cc2)CC1 [Compound 43-2]
1 to 10 µM

Return reported IC50; argument: CN([C@H](C(=O)N1CCC(N)CC1)C(F)(F)c1ccc(Oc2ccccc2)cc1)S(=O)(=O)c1ccc2cc(OC3CCCC3)ccc2c1 [Compound 62-1, trifluoroacetate]
1 to 10 µM

Return reported IC50; argument: CCCCOc1ccc(C(F)(F)[C@H](C(=O)N2CCC(N)CC2)N(C)S(=O)(=O)c2ccc3cc(OC4CCCC4)ccc3c2)cc1 [Compound 53-2]
10 to 30 µM

---

Molecular target: human CGT (ceramide galactosyltransferase), CHO/CGT lysate (Homo sapiens)
Construct: Full-length human CGT cDNA was cloned into the BamH1/Xho1 site of pcDNA3.1 (+); expressed in transfected cells; host or cells: Chinese hamster ovary (CHO) cells; lysate prepared with M-PER
Sequence (Q16880 21-541): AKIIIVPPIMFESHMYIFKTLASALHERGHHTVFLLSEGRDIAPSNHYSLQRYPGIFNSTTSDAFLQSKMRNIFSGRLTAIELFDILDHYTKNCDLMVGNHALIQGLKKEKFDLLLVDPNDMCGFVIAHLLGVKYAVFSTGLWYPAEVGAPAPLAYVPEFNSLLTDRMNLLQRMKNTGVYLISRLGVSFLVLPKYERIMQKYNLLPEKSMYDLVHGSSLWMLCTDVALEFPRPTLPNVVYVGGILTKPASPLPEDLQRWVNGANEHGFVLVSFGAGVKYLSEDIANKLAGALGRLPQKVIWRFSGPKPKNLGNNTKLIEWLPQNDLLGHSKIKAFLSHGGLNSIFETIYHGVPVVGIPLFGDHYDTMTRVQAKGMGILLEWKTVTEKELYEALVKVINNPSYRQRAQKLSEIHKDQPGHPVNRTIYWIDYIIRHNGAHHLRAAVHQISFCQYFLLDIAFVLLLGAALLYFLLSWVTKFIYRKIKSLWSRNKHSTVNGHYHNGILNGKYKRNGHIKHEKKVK
Experiment: CGT enzyme assay, RapidFire/MS/MS readout (Table 1 ranges with one asterisk *)
Assay type: biochemical
Conditions: RapidFire method (range with one asterisk *)
Structures can show the parent of a compound that is named as a salt.
Reported IC50 values are given for each entry in this list.

Some compounds with known IC50 results, for comparison:
- COMPOUND: "NC1CCN(C(=O)[C@H](NS(=O)(=O)c2ccc3cc(OC4CCCC4)ccc3c2)C(F)(F)c2ccc(OC3CCCCC3)cc2)CC1"
  IC50: "1 to 10 µM"
- COMPOUND: "CN([C@@H](C(=O)N1CCC(N)CC1)C(F)(F)c1ccc(Oc2ccccc2)cc1)S(=O)(=O)c1ccc2cc(OC3CCCC3)ccc2c1 [Compound 62-2, trifluoroacetate]"
  IC50: "1 to 10 µM"
- COMPOUND: "COc1cc(C(F)(F)[C@H](NS(=O)(=O)c2ccc3cc(OC4CCCC4)ccc3c2)C(=O)N2C3CCC2CC(N)C3)ccc1-c1ccc(Cl)cc1 (some centres unmarked)"
  IC50: "< 1 µM"
- COMPOUND: "NC1CCN(C(=O)[C@H](NS(=O)(=O)c2ccc(OCC3CCCCC3)cc2)C(F)(F)c2ccc(C(F)(F)F)cc2)CC1"
  IC50: "30 to 100 µM"

Would you kindly look at the next entry?
Lookup: IC50 / human CGT (ceramide galactosyltransferase), CHO/CGT lysate (Homo sapiens) / NC1CCN(C(=O)[C@@H](NC(=O)[C@@H](O)c2ccc(OCC3CCCCC3)cc2)C(F)(F)c2ccc(-c3ccc(Cl)cc3)cc2)CC1 [Compound 141-3, trifluoroacetate]
1 to 10 µM

---

target: human CGT (ceramide galactosyltransferase), CHO/CGT lysate (Homo sapiens); construct: Full-length human CGT cDNA was cloned into the BamH1/Xho1 site of pcDNA3.1 (+); expressed in transfected cells; host or cells: Chinese hamster ovary (CHO) cells; lysate prepared with M-PER; assay: CGT enzyme assay, RapidFire/MS/MS readout (Table 1 ranges with one asterisk *); assay type: biochemical; conditions: RapidFire method (range with one asterisk *)
Reported IC50 values are given for each entry in this list.

Some compounds with known IC50 results, for comparison:
- COMPOUND: "NC1CCN(C(=O)[C@H](NS(=O)(=O)c2ccc(OCC3CCCCC3)cc2)C(F)(F)c2ccc(-c3ccc(Cl)s3)cc2)CC1 [Compound 117-2]"
  IC50: "10 to 30 µM"
- COMPOUND: "NC1CC2CCC(C1)N2C(=O)[C@@H](NS(=O)(=O)c1ccc2cc(OC3CCCC3)ccc2c1)C(F)(F)c1ccc(-c2ccc(C(F)(F)F)cc2)cc1 (some centres unmarked) [Compound 55-1]"
  IC50: "< 1 µM"
- COMPOUND: "CN([C@H](C(=O)N1CCC(N)CC1)C(F)(F)c1ccc(Oc2ccccc2)cc1)S(=O)(=O)c1ccc(OCC2CCCCC2)cc1 [Compound 64-1]"
  IC50: "1 to 10 µM"
- COMPOUND: "CN([C@H](C(=O)N1C2CCC1CC(N)C2)C(F)(F)c1ccc(Br)cc1)S(=O)(=O)c1ccc2nn(CC3CCCC3)cc2c1 (some centres unmarked) [Compound 78-1]"
  IC50: "1 to 10 µM"

Would you kindly look at the next entry?
Return reported IC50; argument: N[C@@H]1CCCN(C(=O)[C@@H](NS(=O)(=O)c2ccc3cc(OC4CCCC4)ccc3c2)C(F)(F)c2ccc(Br)cc2)C1 [Compound 122-1]
1 to 10 µM
